# Assay system: full-length AR (Homo sapiens, UniProt P10275, T878A)
# Construct: against full length AR using an AR-eGFP transcription assay in LNCaP cells; endogenous in cells; host or cells: LNCaP (LN-ARR2PB-eGFP reporter line for A1; parental LNCaP for RIME)
# Sequence (P10275 1-920 T878A): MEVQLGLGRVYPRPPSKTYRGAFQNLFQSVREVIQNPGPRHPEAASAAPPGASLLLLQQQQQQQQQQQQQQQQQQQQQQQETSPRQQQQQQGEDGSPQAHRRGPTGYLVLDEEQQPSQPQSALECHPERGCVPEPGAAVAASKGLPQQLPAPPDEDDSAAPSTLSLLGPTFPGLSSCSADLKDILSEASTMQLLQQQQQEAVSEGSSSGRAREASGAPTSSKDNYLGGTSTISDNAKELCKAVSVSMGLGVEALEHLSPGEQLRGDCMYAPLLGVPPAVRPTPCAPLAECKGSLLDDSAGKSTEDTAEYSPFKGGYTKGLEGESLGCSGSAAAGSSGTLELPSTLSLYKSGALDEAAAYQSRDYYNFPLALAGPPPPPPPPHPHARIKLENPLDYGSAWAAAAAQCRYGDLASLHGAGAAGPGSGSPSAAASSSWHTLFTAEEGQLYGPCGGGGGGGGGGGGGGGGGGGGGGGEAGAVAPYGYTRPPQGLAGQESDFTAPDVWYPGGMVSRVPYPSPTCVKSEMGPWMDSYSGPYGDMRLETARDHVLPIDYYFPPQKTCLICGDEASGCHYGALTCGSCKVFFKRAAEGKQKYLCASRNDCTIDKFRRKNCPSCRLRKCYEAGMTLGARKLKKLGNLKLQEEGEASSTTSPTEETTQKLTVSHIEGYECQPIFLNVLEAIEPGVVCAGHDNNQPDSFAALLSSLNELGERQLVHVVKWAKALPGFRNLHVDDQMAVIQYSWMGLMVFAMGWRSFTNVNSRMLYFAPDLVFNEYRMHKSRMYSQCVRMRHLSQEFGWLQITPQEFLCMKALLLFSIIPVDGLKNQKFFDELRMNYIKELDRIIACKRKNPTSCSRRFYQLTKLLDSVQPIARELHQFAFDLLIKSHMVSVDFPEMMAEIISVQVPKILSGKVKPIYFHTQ
# Test name: AR fluorescent (eGFP) reporter assay in LN-ARR2PB-eGFP LNCaP cells
# Type: cell-based
# Protocol conditions: Table 1; read-out: eGFP IC50
Below: a set of entries, each annotated with reported pIC50.
Please note pIC50 is a logarithmic value: minus log10 of concentration in mol/L. Answer with that number alone.

Below: 3 molecules and their reported pIC50.
Molecule | pIC50
O[C@@H](CCl)COc1cccc2c(OC[C@@H](O)CCl)cccc12 | 6.15
O[C@H](CCl)COc1cccc2c(OC[C@H](O)CCl)cccc12 | 6.15
O=[N+]([O-])c1ccc2c(OCC(O)CCl)cccc2c1OCC(O)CCl (centres unmarked) | 5.30

API: value(readout= pIC50, system= full-length AR (Homo sapiens, UniProt P10275, T878A), query= O=[N+]([O-])c1ccc(OCC(O)CCl)c2c([N+](=O)[O-])ccc(OCC(O)CCl)c12 (centres unmarked) )
5.00

Any idea what pIC50 came out for OC(CCl)COc1ccc(Br)c2c(OCC(O)CCl)cccc12 (centres unmarked) on full-length AR (Homo sapiens, UniProt P10275, T878A)?
6.30

Missing value: pIC50, full-length AR (Homo sapiens, UniProt P10275, T878A), entry OC(CCl)COc1ccc2cc(OCC(O)CCl)ccc2c1 (centres unmarked) . Fill in?
6.30

Give the reported pIC50 for OC(CCl)COc1c(Br)ccc2c(OCC(O)CCl)c(Br)ccc12 (centres unmarked) (system: full-length AR (Homo sapiens, UniProt P10275, T878A)).
5.52

API: value(readout= pIC50, system= full-length AR (Homo sapiens, UniProt P10275, T878A), query= OC(CCl)COc1ccc(Br)c2c(OCC(O)CCl)ccc(Br)c12 (centres unmarked) )
6.40
